Target: Serine/threonine-protein kinase Nek2 (Homo sapiens) (UniProt P51955)
Sequence (P51955 whole entry): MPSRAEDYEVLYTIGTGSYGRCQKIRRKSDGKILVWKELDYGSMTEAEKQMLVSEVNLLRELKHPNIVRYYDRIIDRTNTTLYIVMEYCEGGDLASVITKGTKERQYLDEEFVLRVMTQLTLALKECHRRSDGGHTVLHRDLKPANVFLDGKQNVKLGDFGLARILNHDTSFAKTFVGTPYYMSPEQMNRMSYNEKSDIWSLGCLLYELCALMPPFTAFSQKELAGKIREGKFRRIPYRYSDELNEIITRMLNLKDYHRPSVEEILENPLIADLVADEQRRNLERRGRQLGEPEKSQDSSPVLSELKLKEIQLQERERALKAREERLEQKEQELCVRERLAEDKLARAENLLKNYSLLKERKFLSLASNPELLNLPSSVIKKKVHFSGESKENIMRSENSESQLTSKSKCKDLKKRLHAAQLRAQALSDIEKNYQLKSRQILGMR
Details: at 1 µM
Description: Millipore: Percentage of residual kinase activity of NEK2 at 1uM relative to control. Control inhibitor: Phosphoric acid* at 0.3uM. Buffer: 8 mM MOPS pH 7.0, 0.2 mM EDTA

# structure, residual activity / %
records = [
    ("COc1cc2ncnc(N3CCN(C(=O)Nc4ccc(Oc5ccccc5)cc4)CC3)c2cc1OC", 81),
    ("COc1cc2ncc(-c3ccccc3)nc2cc1OC", 94),
    ("CC(=O)O/N=C1\\C(=C2\\C(=O)Nc3cc(Br)ccc32)Nc2ccccc21", 101),
    ("COc1cccc(-c2cc(=O)c3ccccc3o2)c1N", 98),
    ("Cc1ccc(S(=O)(=O)/C=C/C#N)cc1", 97),
    ("O=C(O)c1ccc2c3c1cccc3c(=O)n1c3ccccc3nc21", 123),
    ("Oc1c2ccccc2c2c3c(cccc13)N=N2", 86),
    ("CNc1cc2c(Nc3cccc(Br)c3)ncnc2cn1", 78),
    ("COc1ccc(S(=O)(=O)N(CCO)c2ccccc2CN(C)C/C=C/c2ccc(Cl)cc2)cc1", 105),
    ("CO[C@@H]1[C@H](N(C)C(=O)c2ccccc2)C[C@H]2O[C@]1(C)n1c3ccccc3c3c4c(c5c6ccccc6n2c5c31)C(=O)NC4", 82),
    ("CC#CC(=O)Nc1cc2c(Nc3ccc(F)c(Cl)c3)ncnc2cn1", 73),
    ("O=c1cc(-c2cccc3c2Sc2ccccc2S3)oc(N2CCOCC2)c1", 96),
    ("O=C(Nc1cccc(Nc2cc(Nc3cccc(C(F)(F)F)c3)ncn2)c1)C1CC1", 73),
    ("Oc1n[nH]c2nnc(-c3c(-c4ccccc4)nn4ccccc34)cc12", 95),
    ("Cc1nc2cc3nc(-c4cccs4)cnc3cc2n1C", 87),
    ("N#CC(C#N)=C(N)/C(C#N)=C/c1ccc(O)cc1", 91),
    ("COc1cc2ncnc(Nc3ccc(Oc4ccccc4)cc3)c2cc1OC", 92),
    ("Oc1ccc(-c2nc(-c3ccc(F)cc3)c(-c3ccncc3)[nH]2)cc1", 127),
    ("Nc1nc(Nc2ccc(S(N)(=O)=O)cc2)nn1C(=S)Nc1c(F)cccc1F", 91),
    ("Cn1cnc2cc3c(Nc4cccc(Br)c4)ncnc3cc21", 87),
    ("Cn1nc2c3c(cccc31)C(=O)c1ccccc1-2", 95),
    ("Cc1ccc(NC2=CC(=O)c3sc(C)nc3C2=O)cc1", 91),
    ("Cc1cc2ncc(-c3ccccc3)nc2cc1C", 92),
]
